molecular target: pooled human IgG
Please respond with reported Enzyme Activity Endpoint Assay: Fc for every item in the list.
Only the number, expressed in ng/µL, is required.

// Enzyme Activity Endpoint Assay: Fc lookup, key: PRT-18 (protein) MANQEIRYSEETPYHVTSVWTKGVTPPTNFTQGEDVFHAPYIANQGWYDITKTFNGKDDLLCGAATAGNMLHWWFDQNKEEIEKYLEEHPEKQKINFNGEQMFDVKEVIDTKDSQLDSKLFEYFKEKAFPYLSTKHLGVFPDHVIDMFINGYRLNLTNHGPTPVKEGSKDPRGGIFDAVFTRGDQSKLLTERHDFKEKTLKEISQLIKQELTEGKALGLSHTYANVRINHVINLWGADFDSEGNLEAIYVTDSDSNASIGMKKYFVGVNSAGKVAISAKEIEEDNIGAQVLGLFTLSTGQDIWEQTN 105

Now give it for PRT-53 (protein) MANQEIRYSEVTPYHVTSVWTKGVTPPANFTQGEDVFHAPYVANQGWYDITKTFNGKDDLLCGAATAGNMLHWWFDQNKDQIDRYLEEHPEKQKINFNGEQMFDVKEAIDTKNDQLDSKLFEYFKEKAFPYLSTKHLGVFPDLVIDMFINGYRLSLTNHGPTPVKEGSKDPRGGIFDAVFTRGDQSKLLTSRHDFKEKNLKEISDLIKKELTEGKALGLSHTYANVRINHVINLWGADFDSNGNLKAIYVTDSDSNASIGMKKYFVGVNSAGKVAISAKEIKEDNIGAQVLGLFTLSTGQDSWNQTN too. 84
